Data origin, for the record: a melting point compilation (Tetko et al.; mined from patent text by program, amines drawn as free bases though some values may be those of a salt)

Property: melting point; scope: individual compounds

O=C(Oc1ccc(Oc2ccc(C(F)(F)F)cn2)cc1)N1CCN(c2cnccn2)CC1 : 160 to 161 °C
COc1cc(N)c(Cl)cc1C(=O)NCC1CCN(CCS(=O)(=O)Cc2ccccc2)CC1 : 220 to 223 °C

Kindly review the next compound as well.
Inquiry: What does the record list as melting point for "CCn1cc(C(=O)O)c(=O)c2ccc(F)c(C)c21" ?
Reply text: 245 to 246 °C

* * *

READOUT_KIND: melting point

Worked examples follow.
Cc1ccccc1P(=NC(=O)OC1CCOC1)(c1ccccc1)c1ccccc1 (stereo unspecified) : 118 to 119 °C
CC(C)Cn1c(CNC(=O)OC(C)(C)C)c(-c2ccccc2)c2cc(OC(C)(C)C(=O)O)ccc2c1=O : 219 to 220 °C
O=C(NCCO[N+](=O)[O-])C1COc2ccccc2O1 (stereo unspecified) : 69 to 71 °C
O=C1CC(=O)N(c2ccc(Cl)cc2)N1 : 189 to 193 °C

Inquiry: What does the record list as melting point for "CS(=O)(=O)c1ccc(-c2ccccc2C=O)cc1" ?
Reply text: 115 to 116 °C

Inquiry: Moving on to "CCOC(=O)C[C@H](NC(=O)/C=C/C(=O)c1ccccc1)C(=O)OCC"
Reply text: 91 to 93 °C

* * *

Property: melting point; scope: individual compounds

Cc1cccc(Cl)c1CCCOc1oc(-n2ccnc2C)nc1-c1ccc(Cl)cc1 : 115 to 116 °C
COC(=O)CS(=O)CCCCN(c1cnc(-c2ccccc2)c(-c2ccccc2)n1)C(C)C (configuration not stated) : 128 to 130 °C
Cc1cc(S(=O)(=O)c2ccc(N)cc2)cc(Br)n1 : 189 to 191 °C

Inquiry: What does the record list as melting point for "CC(=O)CCCCC(=O)Nc1ccc(C=CC(=O)O)cc1" ?
Reply text: 222 to 225 °C

Inquiry: Moving on to "COc1ccc(-c2nc(NC(=N)N)sc2-c2ccc(OC)cc2)cc1"
Reply text: 121 to 130 °C

Inquiry: Moving on to "Cc1c(/C=C/C(=O)O)cnn1C"
Reply text: 217 to 219 °C

Inquiry: Moving on to CN(C)c1ccc(-c2c(N3CCCC3C(=O)OC(C)(C)C)c(=O)c2=O)cc1 (configuration not stated)
Reply text: 115 °C

Inquiry: Moving on to "CC(C)Nc1cccnc1N1CCN(C(=O)c2ccc(C(=O)N[C@H](CO)c3ccccc3)cc2)CC1"
Reply text: 93 to 95 °C

Inquiry: Moving on to "CCOC(=O)c1c(Cl)nc(CC)n1Cc1ccc2oc(-c3ccccc3N)c(Br)c2c1"
Reply text: 53 to 56 °C

* * *

Property: melting point; scope: individual compounds

Worked examples follow.
CCc1ccc(Nc2c(F)c(F)cc(F)c2F)c(CC(=O)O)c1 : 165 to 169 °C
CC(C)c1ccc2c(CCCCN(C)S(=O)(=O)c3ccccc3)cc(C(=O)O)c-2cc1 : 153 to 155 °C

Kindly review the next compound as well.
Inquiry: What does the record list as melting point for "FC(F)(F)COc1nc(-c2ccccc2)c2cc(Cl)ccc2n1" ?
Reply text: 185 to 186 °C

* * *

READOUT_KIND: melting point

COc1cc(OC)c(-c2cc3ccccc3s2)cc1/C=C/C(=O)c1ccc(Nc2c(N)c(=O)c2=O)cc1 : > 260 °C

Inquiry: What does the record list as melting point for NC(=O)NC(CS)Cc1ccccc1 (single isomer, unassigned; (+)) ?
Reply text: 118 °C

Inquiry: Moving on to "CCCCCCCCCCCCCCNC1=NS(=O)(=O)c2sc(Cl)cc2N1"
Reply text: 157 to 158 °C

Inquiry: Moving on to "O=C1c2c(O)ccc(O)c2C(=O)c2c(NCCN3CCCCC3)ccc(NCCN3CCCCC3)c21"
Reply text: 219 to 221 °C

Inquiry: Moving on to "CCN1c2ccccc2Sc2cc(C=O)ccc21"
Reply text: 94 to 95 °C

* * *

Property: melting point; scope: individual molecules

Worked examples follow.
COCCC(=O)Nc1ccc(Cl)c(C2(C)C(=O)N(Cc3ccc(OC)cc3OC)c3ccc(Cl)cc32)c1 (stereo not drawn) : 168 °C
CCCCCOc1cc2c(cc1OCc1cccc(C(=O)OC)c1)C(=O)CC2 : 110 to 111 °C

Kindly review the next molecule as well.
Inquiry: What does the record list as melting point for "CC(C)(C)[Si](C)(C)OC[C@H]1OC[C@@H](n2cnc3cc(Cl)c(Cl)cc32)C[C@@H]1O" ?
Reply text: 143 to 155 °C

* * *

READOUT_KIND: melting point

CS(=O)(=O)c1ccc(-n2nc(C(F)(F)F)cc2-c2ccc(-c3ncco3)cc2)cc1 : 190 to 192 °C

Inquiry: What does the record list as melting point for "Cc1cc(Sc2ccc([N+](=O)[O-])cc2)cc(Br)n1" ?
Reply text: 124 to 126 °C

Inquiry: Moving on to CCCON1C(C)(C)CC(NC(=O)C2=C(c3ccccc3)C(c3ccccc3)OC2=O)CC1(C)C (stereo unspecified)
Reply text: 79 to 85 °C

Inquiry: Moving on to "CCCc1nc2c(N)nc3ccccc3c2n1CCCCN(O)C(=O)NC(C)C"
Reply text: 158 to 160 °C

Inquiry: Moving on to "O=CCOc1ccccc1OCC(F)(F)F"
Reply text: 55.3 to 57.5 °C

Inquiry: Moving on to "CCOC(=O)c1c(N)sc(N=Cc2cccs2)c1C(=O)OCC"
Reply text: 114 to 116 °C

* * *

READOUT_KIND: melting point

CCOP(=O)(Cc1ccc(NC(=O)CCc2sc(N)nc2-c2ccc(Cl)cc2)cc1)OCC : 177 to 178 °C

Inquiry: What does the record list as melting point for "O=C1CCC(O)=C1Cc1ccc(Br)cc1" ?
Reply text: 199 to 201 °C

Inquiry: Moving on to "C[C@@H](NC(=O)c1c[nH]c2ncc(-c3nn(C)c4cccnc34)nc12)C(=O)N1CC(C#N)C1"
Reply text: 194 to 198 °C

Inquiry: Moving on to COc1ccc(CCNCC(O)c2ccccc2C)cc1OC (stereo unspecified)
Reply text: 91 to 94 °C

Inquiry: Moving on to "CN(c1ccc(Cl)cc1)S(=O)(=O)c1cccc(NC(=O)c2ccc(Br)cc2)c1"
Reply text: 187 to 189 °C

Inquiry: Moving on to "COc1cc(C(=O)c2[nH]c3ccccc3c2C)cc([N+](=O)[O-])c1O"
Reply text: 195 to 197 °C

* * *

Property: melting point; scope: individual molecules

Worked examples follow.
Cc1ncc2c(n1)-c1ccc(Cl)cc1C(c1ccccc1Cl)N(C)C2 (stereo unspecified) : 155 to 156 °C
O=S1CCn2c1nc(-c1ccc(F)cc1)c2-c1ccncc1 (stereo unspecified) : 229 to 231 °C
COC(=O)c1cn(-c2cc(C(=O)Nc3cc(C(C)(C)C)cc(NS(C)(=O)=O)c3OC)cc(C)c2C)nn1 : 199 °C
Clc1ccc2c(c1)c(-c1ccccc1)c1n2CCNC1 : 163 to 164 °C
CCOP(=O)(/C=C/c1cn(-c2ccccc2)nc1OCc1ccc(OCc2coc(-c3ccco3)n2)c(OC)c1)OCC : 96 to 97 °C

Inquiry: What does the record list as melting point for "COc1ccc2c(c1)CN(C(=O)CN1CCCC1)N=C2Cc1c(Cl)cncc1Cl" ?
Reply text: 148 to 150 °C

Inquiry: Moving on to "CC(C)(C)OC(=O)N1CCC(Oc2ccc(-c3cn[nH]c(=O)c3)cc2)CC1"
Reply text: 222 to 223 °C

Inquiry: Moving on to "CC(C)(Sc1ccc2c(-c3ccc(Cl)cc3)noc2c1)C(=O)O"
Reply text: 176 to 177 °C

Inquiry: Moving on to "CS(=O)(=O)c1ccc(-c2cn(-c3ccccc3)nc2C(=O)O)cc1"
Reply text: 207 to 208 °C

Inquiry: Moving on to "Cn1ccnc1Sc1cc(Cl)ccc1[N+](=O)[O-]"
Reply text: 130 to 131 °C

Inquiry: Moving on to "CC(C)(O)Cn1c(CO)nc2c(N)nc3cc(CCS(C)(=O)=O)ccc3c21"
Reply text: 221 to 223 °C

* * *

Property: melting point; scope: individual compounds

CCCCCCCCCCCCCCCc1cccc(OC)c1C(=O)O : 65 to 72 °C
CO/C(=C\C=C\c1cc2cc(Br)ccc2[nH]1)C(=O)O : 208 to 210 °C
CNc1cccc(NS(=O)(=O)c2ccc(N)cc2)c1 : 134 to 135 °C

Inquiry: What does the record list as melting point for "CC(C)(Cl)C(CO)=NO" ?
Reply text: 114 to 115 °C

Inquiry: Moving on to "CCCCOc1nc(N)c2nc(OC)n(CCS(=O)(=O)c3cccc(CC(=O)OC)c3)c2n1"
Reply text: 246 to 247 °C

Inquiry: Moving on to "CCCCCCCCCCOCCC(=O)O"
Reply text: 41.5 to 43.9 °C
